target: GalNAc(b1-6)GalNAc; experiment: glycan array binding signal (z-score within array); higher = stronger binding; conditions: glycan notation: IUPAC condensed, linker removed
Shown is part of a subset that was picked to be rich in the strongest signals.
Below: a set of entries, each annotated with reported glycan array binding signal (z-score).
Respond numerically, and do not add a unit to the figure.

A selection of reference data follows.
LecB LY19 (Pseudomonas aeruginosa) (protein) MATQGVFTLPANTQFGVTAFANSAGTQTVNVQVNNETVATFTGQSTNNGIIGSKVLNSGGGGKVQILVSVNGRSSDLVSAQVILANELNFALVGSEDSTDNDYNDAVVVINWPLG    -0.559
AFL5 (Aspergillus fumigatus), Q4WB00 (protein) MDNFMEMTKKLGHQPELLRLRALDATYDDALEGKLVVAPLDMSEPGKKILDSGTADGTWLRNVRSKQSVPHDYYGSDVEGELFPKDPDGITYFAHSFKDPWPQQYLGFFDLVHIRGSLAGSAPEGPAPVIQNLTTLLKPGGWVQLMEMNAFSPPPNGPAMTDFAKMASEMFTGIGVGDFANNNKSMLEDAGLKNVQEKRVIVNLGKKAKPELHDQSIHGVTGPIVPLTSVARTVKSSFTGEQLDALPARVKEELETEGGQVEMIIAFGQKA    -0.013
PLU (Photorhabdus luminiscence) (protein) HHHHHHENLYFQSSIVFASIDPRSNPLQTSSQNYVDIPGLKLDVSKYSNSPCLTALITLNIPTPYASGNNFPGGNFAIVTDQGEQLAYGGFTYSSKIPENSGRMPFTLVARYSLASNVSTIKAQWSNIRGSTVHIDSYASISAVIQCNQLV    -0.216
SJCP1531 (Schistosoma japonicum) (protein) MFKVRIINLVNISTVLLLINLLQTKSQVNVEQLVTVLEVNIKAQLKNKTTEVLVEWNPLYQDNSMPEYRKLLDETCKLFLPFVNEKVPPSTYGGECTNANFSEAPQDGSYSRVNAELRLIYKYSDNPQIQTDRLQDDLNDREEFITSESSFVAYNPKFTVKIEKLFIPISESQTTPPPTTAKNDASKKDDDDNGGEDSKAPIDTFAMTASGNKGKKDDDDNGGEDSKAPIDTFAMTASGSKDERSTWTIIGIITLVVLIFVVIGGGITVFVKRC    2.81

// returns reported glycan array binding signal (z-score) for input Mnn9-2N3 (Aspergillus fumigatus) (protein) MAVARRMRRTNPITLLLAAILAIGFFIFVLSPSTTSASPVKAGSASSSSTSQQRREDNAAENPLSPPTKPFFKSQPVRHDGQQAPPPVVQYNLNQLSSTSTSAANGERILILTPMARFVPEYWDNVVKLTYPHELISIGFIIPKNKEGNAALAALEAAIAKTQSGPIDKRFASISILRQDFEPPLQSQDEKERHKISNQKARRESMSRARNSLLFTTLGPATAWVLWLDADIVETPPTLIQDLTAHDHPVLVPNCYQRYYNSEKKKMDVRPYDYNSWIDSSTAQSMAAEMGPDEILLEGYAEMPTYRTLMAHLADTANPNPKKVIELDGVGGTALMVKAEVHRDGAMFPAFPFYHLVETEGFAKMAKRLGYSVYGLPDYFVSRNFFFFFFFFFFG -0.275

// returns reported glycan array binding signal (z-score) for input Pwp4 (Candida glabrata) (protein) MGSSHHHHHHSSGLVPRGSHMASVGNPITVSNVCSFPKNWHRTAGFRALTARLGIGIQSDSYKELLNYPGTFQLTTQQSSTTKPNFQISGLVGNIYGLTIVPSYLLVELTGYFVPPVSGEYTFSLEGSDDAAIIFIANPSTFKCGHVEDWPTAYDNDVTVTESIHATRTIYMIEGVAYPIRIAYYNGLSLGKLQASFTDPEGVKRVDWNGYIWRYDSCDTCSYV -0.402
